Numbers sourced from patent US11560371B2.

- Assayed System: AR (Homo sapiens, UniProt P10275)
- Construct: endogenous in cells; host or cells: VCaP cells
- Sequence (P10275 whole entry): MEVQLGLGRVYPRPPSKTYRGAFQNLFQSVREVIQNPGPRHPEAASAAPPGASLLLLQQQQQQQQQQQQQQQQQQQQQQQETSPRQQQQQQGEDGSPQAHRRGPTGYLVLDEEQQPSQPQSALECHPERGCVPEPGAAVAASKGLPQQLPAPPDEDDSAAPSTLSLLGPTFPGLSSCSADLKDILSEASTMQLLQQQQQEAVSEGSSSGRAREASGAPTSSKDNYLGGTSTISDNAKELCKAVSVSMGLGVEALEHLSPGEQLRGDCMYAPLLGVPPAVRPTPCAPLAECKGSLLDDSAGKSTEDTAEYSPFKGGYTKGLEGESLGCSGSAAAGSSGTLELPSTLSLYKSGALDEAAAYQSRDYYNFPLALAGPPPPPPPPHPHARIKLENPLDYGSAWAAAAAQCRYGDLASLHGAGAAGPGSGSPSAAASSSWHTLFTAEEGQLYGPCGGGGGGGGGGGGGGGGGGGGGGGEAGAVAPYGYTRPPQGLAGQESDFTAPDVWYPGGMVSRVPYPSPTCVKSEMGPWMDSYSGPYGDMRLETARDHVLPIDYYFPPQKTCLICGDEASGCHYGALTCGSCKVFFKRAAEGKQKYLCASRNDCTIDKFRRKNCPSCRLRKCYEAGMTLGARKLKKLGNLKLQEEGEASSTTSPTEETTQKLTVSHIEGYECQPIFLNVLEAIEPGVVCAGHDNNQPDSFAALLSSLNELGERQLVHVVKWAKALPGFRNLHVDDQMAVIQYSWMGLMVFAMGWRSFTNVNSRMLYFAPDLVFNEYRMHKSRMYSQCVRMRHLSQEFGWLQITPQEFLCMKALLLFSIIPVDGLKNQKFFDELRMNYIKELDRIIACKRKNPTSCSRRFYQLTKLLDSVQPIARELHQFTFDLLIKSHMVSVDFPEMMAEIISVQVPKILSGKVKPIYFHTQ
- Protocol Text: VCAP AR Degradation Assay
- Assay type: cell-based
- Measurement Parameters: VCaP cells, 24 h, AR ELISA; lowest measured AR level normalized to DMSO control (AR degradation efficiency)
Counter-ions that a name gives are not always drawn.
Reported Property: Y

>>> readout_value("C[C@@H]1C[C@H](OCC[C@H]2CC[C@H](N3C(=S)N(c4ccc(C#N)c(C(F)(F)F)c4)C(=O)C3(C)C)CC2)C[C@H](C)N1CC(=O)Nc1cccc2c(N3CCC(=O)NC3=O)nn(C)c12")
"** (20%<Y≤%)"
>>> readout_value("C[C@@H]1C[C@H](CCO[C@H]2CC[C@H](N3C(=S)N(c4cnc(C#N)c(C(F)(F)F)c4)C(=O)C3(C)C)CC2)C[C@H](C)N1CC(=O)Nc1cccc2c(N3CCC(=O)NC3=O)nn(C)c12")
"* (0<Y≤20%)"
>>> readout_value("C[C@@H]1CN(CCO[C@H]2CC[C@H](N3C(=S)N(c4cnc(C#N)c(C(F)(F)F)c4)C(=O)C3(C)C)CC2)C[C@H](C)N1CC(=O)Nc1cccc2c(N3CCC(=O)NC3=O)nn(C)c12 [Cmpd 4, hydrochloride]")
"** (20%<Y≤%)"
>>> readout_value("C[C@@H]1C[C@H](OCC[C@H]2CC[C@H](N3C(=S)N(c4cnc(C#N)c(C(F)(F)F)c4)C(=O)C3(C)C)CC2)C[C@H](C)N1CC(=O)Nc1cccc2c(N3CCC(=O)NC3=O)nn(C)c12")
"* (0<Y≤20%)"
>>> readout_value("C[C@@H]1CN(CCCO[C@H]2CC[C@H](N3C(=S)N(c4ccc(C#N)c(Cl)c4)C(=O)C3(C)C)CC2)C[C@H](C)N1CC(=O)Nc1cccc2c(N3CCC(=O)NC3=O)nn(C)c12 [Cmpd 9, hydrochloride]")
"* (0<Y≤20%)"
>>> readout_value("C[C@@H]1CN(CCCO[C@H]2CC[C@H](N3C(=S)N(c4ccc(C#N)c(C(F)(F)F)c4)C(=O)C3(C)C)CC2)C[C@H](C)N1CC(=O)Nc1cccc2c(N3CCC(=O)NC3=O)nn(C)c12 [Cmpd 8, hydrochloride]")
"* (0<Y≤20%)"

----------
The following compounds are shown together with reported DC50 values.
- Assayed System: AR (Homo sapiens)
- Construct: endogenous in cells; host or cells: VCaP cells
- Protocol Text: VCAP AR Degradation Assay
- Format: cell-based
- Measurement Parameters: VCaP cells, 24 h, AR ELISA; concentration of compound when AR level = 50% of DMSO control (50% AR degradation)
Structures can show the parent of a compound that is named as a salt.
Reported Property: DC50

>>> readout_value("Cn1nc(N2CCC(=O)NC2=O)c2cccc(NC(=O)CN3CCN(CCO[C@H]4CC[C@H](N5C(=S)N(c6ccc(C#N)c(C(F)(F)F)c6)C(=O)C5(C)C)CC4)C[C@@H]3C(F)(F)F)c21 [Cmpd 20, hydrochloride]")
"≤ 2 nM"
>>> readout_value("Cn1nc(N2CCC(=O)NC2=O)c2cccc(NC(=O)CN3CCN(CCCO[C@H]4CC[C@H](N5C(=S)N(c6cnc(C#N)c(C(F)(F)F)c6)C(=O)C5(C)C)CC4)C[C@@H]3C(F)(F)F)c21")
"≤ 2 nM"
>>> readout_value("C[C@@H]1C[C@H](OCC[C@H]2CC[C@H](N3C(=S)N(c4cnc(C#N)c(C(F)(F)F)c4)C(=O)C3(C)C)CC2)C[C@H](C)N1CC(=O)Nc1cccc2c(N3CCC(=O)NC3=O)nn(C)c12")
"2 to 10 nM"
>>> readout_value("Cn1nc(N2CCC(=O)NC2=O)c2cccc(NC(=O)CN3CCN(CCO[C@H]4CC[C@H](N5C(=S)N(c6cnc(C#N)c(C(F)(F)F)c6)C(=O)C5(C)C)CC4)C[C@@H]3C(F)(F)F)c21")
"≤ 2 nM"
>>> readout_value("C[C@@H]1CN(CCCO[C@H]2CC[C@H](N3C(=S)N(c4ccc(C#N)c(C(F)(F)F)c4)C(=O)C3(C)C)CC2)C[C@H](C)N1CC(=O)Nc1cccc2c(N3CCC(=O)NC3=O)nn(C)c12 [Cmpd 8, hydrochloride]")
"≤ 2 nM"
